test system: PPARg homodimer (NR concentration 180 nM); assay: PBM binding z-score (relative to random genomic background probes); higher = stronger binding; sequences stand for … in GC…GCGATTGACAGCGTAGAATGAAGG
Record TRUE whenever PBM binding z-score is at 0.9 or higher; record FALSE when lower.

Use these answered entries as a reference point.
In [3]: df
Out[3]:
                       query_sequence  qualitative_label
0  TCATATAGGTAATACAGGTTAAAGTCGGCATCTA               TRUE
1  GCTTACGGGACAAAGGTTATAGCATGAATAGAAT               TRUE
2  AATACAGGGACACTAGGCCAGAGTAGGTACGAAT              FALSE
3  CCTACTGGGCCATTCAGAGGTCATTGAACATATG               TRUE
4  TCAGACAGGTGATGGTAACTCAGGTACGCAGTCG              FALSE
5  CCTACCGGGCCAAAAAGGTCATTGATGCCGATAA               TRUE
6  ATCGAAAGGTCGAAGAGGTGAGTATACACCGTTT               TRUE
7  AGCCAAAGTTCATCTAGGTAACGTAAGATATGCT               TRUE
8  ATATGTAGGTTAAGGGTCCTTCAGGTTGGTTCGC               TRUE
9  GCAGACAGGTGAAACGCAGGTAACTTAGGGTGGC              FALSE

Okay, now this sequence:
Evaluate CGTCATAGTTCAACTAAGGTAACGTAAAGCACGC : PBM binding z-score at minimum 0.9?
TRUE

###

tested on: PPARg:RXRa 270nM:90nM, anti-RXR (NR concentration 270 nM, RXRa partner concentration 90 nM); experiment: PBM binding z-score (relative to random genomic background probes); higher = stronger binding; sequences stand for … in GC…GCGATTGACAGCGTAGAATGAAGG
Parameter Measured: PBM binding z-score
Lab note: write the figure by itself, no unit.

Consider the worked cases shown below.
>>> df
                       query_sequence   parameter_measured  reported_value
0  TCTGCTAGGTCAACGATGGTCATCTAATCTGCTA  PBM binding z-score            3.34
1  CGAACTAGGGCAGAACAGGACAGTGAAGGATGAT  PBM binding z-score            1.47
2  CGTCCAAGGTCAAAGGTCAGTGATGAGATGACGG  PBM binding z-score            8.75
3  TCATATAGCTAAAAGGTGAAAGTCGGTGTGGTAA  PBM binding z-score            2.94

Kindly review the next sequence as well.
Quick check: PBM binding z-score of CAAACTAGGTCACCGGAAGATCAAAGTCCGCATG ?
7.49

###

tested on: LXRb homodimer (NR concentration 270 nM); experiment: PBM binding z-score (relative to random genomic background probes); higher = stronger binding; sequences stand for … in GC…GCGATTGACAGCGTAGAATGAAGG
PBM binding z-score overview
Lab note: write the figure by itself, no unit.

>>> print(df.to_string())
                       query_sequence                         system_under_test   parameter_measured  reported_value
0  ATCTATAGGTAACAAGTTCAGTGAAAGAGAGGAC  LXRb homodimer (NR concentration 270 nM)  PBM binding z-score           0.629
1  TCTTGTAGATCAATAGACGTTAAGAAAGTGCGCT  LXRb homodimer (NR concentration 270 nM)  PBM binding z-score           0.106

Quick check: PBM binding z-score of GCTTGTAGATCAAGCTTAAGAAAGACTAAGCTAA ?
-1.32

Quick check: PBM binding z-score of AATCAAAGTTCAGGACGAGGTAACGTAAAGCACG ?
0.58
